- system.name: RNF31 UBA domain (Homo sapiens)
- Construct: RNF31 UBA domain protein (residues 480-639) with N-terminal Thioredoxin-TEV-6×his-yBBr-3C tags; Thioredoxin (N, cleaved yes); made in house; host or cells: E. coli BL21 (DE3) pLysS
- Sequence (Q96EP0 480-639): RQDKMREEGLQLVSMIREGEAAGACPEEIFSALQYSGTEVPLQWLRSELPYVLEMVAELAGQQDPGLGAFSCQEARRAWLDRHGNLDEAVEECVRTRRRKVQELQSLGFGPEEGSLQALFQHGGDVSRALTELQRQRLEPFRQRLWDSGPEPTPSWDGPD
- assay.method.text: Phage Library Screening with NGS, RNF31 UBA domain
- Type: binding
- conditions.used: RNF31 UBA domain cluster C46; target concentration 30
Note to self: Phage library screen NGS readout, Target Concentration 30 under 20 means Yes, ties and anything higher get No.

| sequence.string | system.name | category |
| --- | --- | --- |
| DPAHVRCTSAALWCNIF | RNF31 UBA domain (Homo sapiens) | Yes |
| DPAAQACLSAAVFCAWY | RNF31 UBA domain (Homo sapiens) | Yes |
| DPAQMFCYSAAVYCAAF | RNF31 UBA domain (Homo sapiens) | Yes |
| DPAQRQCLSAAVFCATL | RNF31 UBA domain (Homo sapiens) | No |
| DPAVQSCLSAAVYCAFR | RNF31 UBA domain (Homo sapiens) | Yes |
| DPASASCLSAAIYCSMF | RNF31 UBA domain (Homo sapiens) | Yes |

* * *

- system.name: MDM2 (Homo sapiens)
- Construct: made in house
- Sequence (Q00987 25-109): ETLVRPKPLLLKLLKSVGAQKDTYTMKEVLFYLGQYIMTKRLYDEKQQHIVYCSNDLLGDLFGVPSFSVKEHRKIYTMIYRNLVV
- assay.method.text: Naive Library Presenter Screening (phage, NGS), MDM2
- Format: binding
- conditions.used: MDM2 target concentration 10 nM
Numbered stars: 1 amine (or outer) side, 2 acyl side, 3 side chain; on linkers, the order of the positions; unused ones are H or OH. Bridge positions count the residues as written; N and C are the ends. Ends that are not written are not given here. Phenylene(1,4-NHCOCH2)2 = O=C(C[*:1])Nc1ccc(NC(=O)C[*:2])cc1
Quick reference: interaction data at Target Concentration 10 of the listed items.
value.type: interaction data at Target Concentration 10

| sequence.string | readout.number |
| --- | --- |
| DPASEACFQAAWDCVSW (DPASEACFQAAWDCVSW-NH2; linker 7-14 via Phenylene(1,4-NHCOCH2)2 (inferred)) | 2 |
| DPADSECFQAASDCQYW (linker 7-14 via Phenylene(1,4-NHCOCH2)2 (inferred)) | 7 |
| DPAYASCFSAAWDCQFW (linker 7-14 via Phenylene(1,4-NHCOCH2)2 (inferred)) | 0 |
| DPANHACFQAAWDCQFF (linker 7-14 via Phenylene(1,4-NHCOCH2)2 (inferred)) | 11 |

* * *

- system.name: beta-catenin (Homo sapiens, UniProt P35222)
- Construct: made in house; host or cells: E. coli BL21 (DE3) pLysS
- Sequence (P35222 134-665): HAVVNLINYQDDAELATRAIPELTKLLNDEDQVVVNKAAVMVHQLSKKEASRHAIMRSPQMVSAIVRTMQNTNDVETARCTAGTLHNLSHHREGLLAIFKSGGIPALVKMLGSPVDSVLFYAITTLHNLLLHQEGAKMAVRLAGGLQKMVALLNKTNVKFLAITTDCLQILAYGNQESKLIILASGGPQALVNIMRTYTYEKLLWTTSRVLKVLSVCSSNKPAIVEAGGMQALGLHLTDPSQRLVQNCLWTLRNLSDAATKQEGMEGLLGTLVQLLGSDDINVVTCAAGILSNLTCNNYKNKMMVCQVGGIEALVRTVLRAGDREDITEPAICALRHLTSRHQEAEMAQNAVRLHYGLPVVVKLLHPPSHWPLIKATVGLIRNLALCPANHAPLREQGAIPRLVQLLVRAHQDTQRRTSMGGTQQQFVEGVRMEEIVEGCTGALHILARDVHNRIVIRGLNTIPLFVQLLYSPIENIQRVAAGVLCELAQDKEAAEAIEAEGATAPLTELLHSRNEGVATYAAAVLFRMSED
- assay.method.text: Phage Library Screening with NGS, beta-catenin
- Type: binding
- conditions.used: beta-catenin target concentration 1000; first 1000 column
Note to self: Target Concentration 1000 (phage screen NGS readout) under 50 means Condition met, ties and anything higher get Condition not met.

| sequence.string | system.name | category |
| --- | --- | --- |
| DPAIFNCTMAALECTQI | beta-catenin (Homo sapiens, UniProt P35222) | Condition met |
| DPAEWACEHAALTCWDQ | beta-catenin (Homo sapiens, UniProt P35222) | Condition not met |
| DPAVQDCEWAAIYCELI | beta-catenin (Homo sapiens, UniProt P35222) | Condition not met |
| DPAQFYCEHAALLCRWE | beta-catenin (Homo sapiens, UniProt P35222) | Condition met |
| DPAHLMCHYAAWDCRDE | beta-catenin (Homo sapiens, UniProt P35222) | Condition met |
| DPAWWQCDHAALICIAE | beta-catenin (Homo sapiens, UniProt P35222) | Condition not met |
| DPAWILCDWAAMHCELV | beta-catenin (Homo sapiens, UniProt P35222) | Condition met |
| DPAILDCQIAAIECEFA | beta-catenin (Homo sapiens, UniProt P35222) | Condition not met |

* * *

- system.name: CDK2 (Homo sapiens)
- assay.method.text: Phage Library Screening with NGS, CDK2
- Assay type: binding
- Design: Full length CDK2 (residues 1-298) with an N-terminal GST-3C-6×his-TEV tag; GST-3C-6×his-TEV (N, cleaved yes); made in house; host or cells: Sf9 (Bac-to-Bac baculovirus)
- conditions.used: CDK2, target concentration 1000, second column
Numbered stars: 1 amine (or outer) side, 2 acyl side, 3 side chain; on linkers, the order of the positions; unused ones are H or OH. Bridge positions count the residues as written; N and C are the ends. Ends that are not written are not given here. Phenylene(1,4-NHCOCH2)2 = O=C(C[*:1])Nc1ccc(NC(=O)C[*:2])cc1
Quick reference: phage screen counts, Target Concentration 1000 of the listed items.
value.type: phage screen counts, Target Concentration 1000

| sequence.string | system.name | readout.number |
| --- | --- | --- |
| PACVSAFFACL (linker 3-10 via Phenylene(1,4-NHCOCH2)2 (inferred)) | CDK2 (Homo sapiens) | 19 |
| ECLSAFFTCV (linker 2-9 via Phenylene(1,4-NHCOCH2)2 (inferred)) | CDK2 (Homo sapiens) | 284 |
| PTCLNAFFACE (linker 3-10 via Phenylene(1,4-NHCOCH2)2 (inferred)) | CDK2 (Homo sapiens) | 35 |
| DPAWWECIVAALECSDR (linker 7-14 via Phenylene(1,4-NHCOCH2)2 (inferred)) | CDK2 (Homo sapiens) | 90 |
| CLSAFFSCTY (linker 1-8 via Phenylene(1,4-NHCOCH2)2 (inferred); not fully specified (C-terminus)) | CDK2 (Homo sapiens) | 330 |
| DPAWWRCSIAAMECHHD (linker 7-14 via Phenylene(1,4-NHCOCH2)2 (inferred)) | CDK2 (Homo sapiens) | 102 |
| DPAWWRCSIAAVDCEMQ (linker 7-14 via Phenylene(1,4-NHCOCH2)2 (inferred)) | CDK2 (Homo sapiens) | 217 |
| DPAWWTCIIAALECEEQ (linker 7-14 via Phenylene(1,4-NHCOCH2)2 (inferred)) | CDK2 (Homo sapiens) | 102 |
| DPAWYACIVAAVDCEHS (linker 7-14 via Phenylene(1,4-NHCOCH2)2 (inferred)) | CDK2 (Homo sapiens) | 115 |
| PFECLSAFFSC (linker 4-11 via Phenylene(1,4-NHCOCH2)2 (inferred)) | CDK2 (Homo sapiens) | 44 |
| MACVDAFFSC (linker 3-10 via Phenylene(1,4-NHCOCH2)2 (inferred)) | CDK2 (Homo sapiens) | 16 |
| DPAWWHCVIAALDCETQ (linker 7-14 via Phenylene(1,4-NHCOCH2)2 (inferred)) | CDK2 (Homo sapiens) | 141 |
| PECLEAFFDCR (linker 3-10 via Phenylene(1,4-NHCOCH2)2 (inferred)) | CDK2 (Homo sapiens) | 328 |
| PCLDAFFYCVT (linker 2-9 via Phenylene(1,4-NHCOCH2)2 (inferred)) | CDK2 (Homo sapiens) | 51 |
| YECLEAFFNC (linker 3-10 via Phenylene(1,4-NHCOCH2)2 (inferred)) | CDK2 (Homo sapiens) | 193 |
| CLSAFFMCSS (linker 1-8 via Phenylene(1,4-NHCOCH2)2 (inferred); not fully specified (C-terminus)) | CDK2 (Homo sapiens) | 50 |

* * *

- system.name: CHIP (Homo sapiens)
- Construct: N-term truncated CHIP (also known as STUB1, Uniprot ID: Q9UNE7, residues 23-303); made in house; host or cells: E. coli BL21 CodonPlus
- Sequence (Q9UNE7 23-303): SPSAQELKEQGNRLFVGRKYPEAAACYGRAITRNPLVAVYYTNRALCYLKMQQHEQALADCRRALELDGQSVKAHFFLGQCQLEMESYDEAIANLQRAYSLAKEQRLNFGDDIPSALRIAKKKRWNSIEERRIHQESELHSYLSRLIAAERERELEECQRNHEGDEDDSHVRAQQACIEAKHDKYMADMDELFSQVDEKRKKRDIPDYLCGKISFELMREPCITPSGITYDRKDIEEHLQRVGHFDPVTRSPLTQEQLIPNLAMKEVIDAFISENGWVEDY
- assay.method.text: Naive Library Presenter Screening (phage, NGS), CHIP
- Assay type: binding
- conditions.used: CHIP clusters (C83, C84); target concentration 100 nM
Numbered stars: 1 amine (or outer) side, 2 acyl side, 3 side chain; on linkers, the order of the positions; unused ones are H or OH. Bridge positions count the residues as written; N and C are the ends. Ends that are not written are not given here. Phenylene(1,4-NHCOCH2)2 = O=C(C[*:1])Nc1ccc(NC(=O)C[*:2])cc1
Quick reference: interaction data at Target Concentration 100 of the listed items.
value.type: interaction data at Target Concentration 100

| sequence.string | result |
| --- | --- |
| DPAFTRCQFAAAVCNFT (linker 7-14 via Phenylene(1,4-NHCOCH2)2 (inferred)) | 0 |
| DPAFWQCQFAAATCAHY (linker 7-14 via Phenylene(1,4-NHCOCH2)2 (inferred)) | 19 |
| DPAMWHCQYAAIMCNAN (DPAMWHCQYAAIMCNAN-NH2; linker 7-14 via Phenylene(1,4-NHCOCH2)2 (inferred)) | 0 |
| DPAFFECVRAASICMVD (linker 7-14 via Phenylene(1,4-NHCOCH2)2 (inferred)) | 0 |
| DPAELFCTEAADICMVD (linker 7-14 via Phenylene(1,4-NHCOCH2)2 (inferred)) | 0 |
| DPAETFCWDAADICMVD (linker 7-14 via Phenylene(1,4-NHCOCH2)2 (inferred)) | 1 |
| DPANHICHYAAHICDVD (DPANHICHYAAHICDVD-NH2; linker 7-14 via Phenylene(1,4-NHCOCH2)2 (inferred)) | 3 |
| DPAEYACYHAASICNVD (linker 7-14 via Phenylene(1,4-NHCOCH2)2 (inferred)) | 54 |
| DPAFEYCQWAAATCQMD (linker 7-14 via Phenylene(1,4-NHCOCH2)2 (inferred)) | 0 |
| DPAVRWCAAAAAICMVD (linker 7-14 via Phenylene(1,4-NHCOCH2)2 (inferred); not fully specified (C-terminus)) | 0 |
| DPAFVRCQFAAASCHTI (linker 7-14 via Phenylene(1,4-NHCOCH2)2 (inferred)) | 0 |
| DPAFWSCQFAAATCSHL (linker 7-14 via Phenylene(1,4-NHCOCH2)2 (inferred)) | 4 |
| DPAQDNCHYAAHICMVD (DPAQDNCHYAAHICMVD-NH2; linker 7-14 via Phenylene(1,4-NHCOCH2)2 (inferred)) | 0 |
| DPAFEVCQFAAATCSSN (linker 7-14 via Phenylene(1,4-NHCOCH2)2 (inferred)) | 8 |
| DPAYDVCHFAAHICWID (linker 7-14 via Phenylene(1,4-NHCOCH2)2 (inferred)) | 22 |

Source of measurements: patent US20240376151A1
